testTarget: EZH2 within the PRC2 complex (Homo sapiens)
Construct: FLAG
runDescription: EZH2 methyltransferase scintillation proximity assay (SPA)
statedConditions: Human PRC2 5 member complex (FLAG-EZH2, EED, SUZ12, RbAp48, AEBP2), 1 nM enzyme, biotinylated histone H3K27 peptide, 3H-SAM, 60 min at room temperature
pIC50: −log10 of the molar value.
# reported pIC50; entries follow

>  <molecule>
CC[C@@H](c1scc(C(=O)NCc2c(C)cc(C)[nH]c2=O)c1C)C1CCN(CC(F)F)CC1 [Example 21]

>  <testTarget>
EZH2 within the PRC2 complex (Homo sapiens)

>  <qualifier>
≥

>  <pIC50>
8.00

$$$$
>  <molecule>
CCC(c1sc2c(c1C)C(=O)N(Cc1c(C)cc(C)[nH]c1=O)CC2)C1CCN(/C(=N\C#N)NC)CC1 (centres unmarked) [Example 18]

>  <testTarget>
EZH2 within the PRC2 complex (Homo sapiens)

>  <qualifier>
≥

>  <pIC50>
8.00

$$$$
>  <molecule>
CCC(=C1CCN(/C(=N/C#N)NC)CC1)c1scc(C(=O)NCc2c(C)cc(C)[nH]c2=O)c1C [Example 15]

>  <testTarget>
EZH2 within the PRC2 complex (Homo sapiens)

>  <qualifier>
≥

>  <pIC50>
8.00

$$$$
>  <molecule>
CCC(=C1CCN(CC(F)F)CC1)c1scc(C(=O)NCc2c(C)cc(C)[nH]c2=O)c1C [Example 20]

>  <testTarget>
EZH2 within the PRC2 complex (Homo sapiens)

>  <qualifier>
≥

>  <pIC50>
8.00

$$$$
>  <molecule>
CCC(=C1CCN(N(C)C)CC1)c1scc(C(=O)NCc2c(C)cc(C)[nH]c2=O)c1C [Example 7]

>  <testTarget>
EZH2 within the PRC2 complex (Homo sapiens)

>  <qualifier>
=

>  <pIC50>
7.70

$$$$
>  <molecule>
CCC(=C1CCN(O)CC1)c1scc(C(=O)NCc2c(C)cc(C)[nH]c2=O)c1C [Example 8]

>  <testTarget>
EZH2 within the PRC2 complex (Homo sapiens)

>  <qualifier>
=

>  <pIC50>
7.80

$$$$
>  <molecule>
CCC(=C1CCN(CC(C)(F)F)CC1)c1scc(C(=O)NCc2c(C)cc(C)[nH]c2=O)c1C [Example 1]

>  <testTarget>
EZH2 within the PRC2 complex (Homo sapiens)

>  <qualifier>
=

>  <pIC50>
7.80

$$$$
>  <molecule>
CCC(c1sc2c(c1C)C(=O)N(Cc1c(C)cc(C)[nH]c1=O)CC2)N1CCC(N(C)C)CC1 (centres unmarked) [Example 9]

>  <testTarget>
EZH2 within the PRC2 complex (Homo sapiens)

>  <qualifier>
=

>  <pIC50>
7.30

$$$$

* * *

testTarget: EZH2 within the PRC2 complex (Homo sapiens, UniProt Q15910)
Construct: FLAG
Sequence (Q15910 whole entry): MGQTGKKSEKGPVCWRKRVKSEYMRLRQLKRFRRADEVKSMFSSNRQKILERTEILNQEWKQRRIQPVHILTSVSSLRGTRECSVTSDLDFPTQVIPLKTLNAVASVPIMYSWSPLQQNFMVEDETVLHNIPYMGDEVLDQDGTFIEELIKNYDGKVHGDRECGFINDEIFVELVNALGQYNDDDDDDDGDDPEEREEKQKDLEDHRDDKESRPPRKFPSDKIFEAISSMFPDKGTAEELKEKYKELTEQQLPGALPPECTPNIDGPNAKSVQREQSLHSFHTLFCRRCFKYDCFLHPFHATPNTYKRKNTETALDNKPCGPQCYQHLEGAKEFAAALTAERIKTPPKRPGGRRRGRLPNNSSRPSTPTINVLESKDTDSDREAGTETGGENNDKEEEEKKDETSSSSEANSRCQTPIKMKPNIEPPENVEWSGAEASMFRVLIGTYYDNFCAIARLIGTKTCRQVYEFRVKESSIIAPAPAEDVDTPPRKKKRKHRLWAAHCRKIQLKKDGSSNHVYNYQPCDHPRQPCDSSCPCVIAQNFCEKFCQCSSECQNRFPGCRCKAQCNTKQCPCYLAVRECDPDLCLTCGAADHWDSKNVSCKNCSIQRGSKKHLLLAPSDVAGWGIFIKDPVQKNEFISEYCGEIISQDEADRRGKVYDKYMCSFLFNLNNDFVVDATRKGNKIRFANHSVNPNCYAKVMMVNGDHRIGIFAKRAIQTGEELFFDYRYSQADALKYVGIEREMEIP
Sequence (O75530 whole entry partner): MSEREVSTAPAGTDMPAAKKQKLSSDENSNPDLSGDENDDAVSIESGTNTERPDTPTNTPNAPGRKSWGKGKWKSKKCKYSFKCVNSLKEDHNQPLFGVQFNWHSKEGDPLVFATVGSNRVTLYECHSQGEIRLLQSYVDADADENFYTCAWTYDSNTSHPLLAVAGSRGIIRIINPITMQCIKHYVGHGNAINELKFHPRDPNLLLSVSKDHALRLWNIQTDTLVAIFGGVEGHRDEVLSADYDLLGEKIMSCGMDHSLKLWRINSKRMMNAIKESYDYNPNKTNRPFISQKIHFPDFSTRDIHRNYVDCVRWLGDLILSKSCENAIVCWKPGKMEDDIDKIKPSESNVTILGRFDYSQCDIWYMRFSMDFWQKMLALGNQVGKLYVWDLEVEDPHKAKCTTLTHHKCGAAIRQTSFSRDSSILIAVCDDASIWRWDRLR
Sequence (Q15022 whole entry partner): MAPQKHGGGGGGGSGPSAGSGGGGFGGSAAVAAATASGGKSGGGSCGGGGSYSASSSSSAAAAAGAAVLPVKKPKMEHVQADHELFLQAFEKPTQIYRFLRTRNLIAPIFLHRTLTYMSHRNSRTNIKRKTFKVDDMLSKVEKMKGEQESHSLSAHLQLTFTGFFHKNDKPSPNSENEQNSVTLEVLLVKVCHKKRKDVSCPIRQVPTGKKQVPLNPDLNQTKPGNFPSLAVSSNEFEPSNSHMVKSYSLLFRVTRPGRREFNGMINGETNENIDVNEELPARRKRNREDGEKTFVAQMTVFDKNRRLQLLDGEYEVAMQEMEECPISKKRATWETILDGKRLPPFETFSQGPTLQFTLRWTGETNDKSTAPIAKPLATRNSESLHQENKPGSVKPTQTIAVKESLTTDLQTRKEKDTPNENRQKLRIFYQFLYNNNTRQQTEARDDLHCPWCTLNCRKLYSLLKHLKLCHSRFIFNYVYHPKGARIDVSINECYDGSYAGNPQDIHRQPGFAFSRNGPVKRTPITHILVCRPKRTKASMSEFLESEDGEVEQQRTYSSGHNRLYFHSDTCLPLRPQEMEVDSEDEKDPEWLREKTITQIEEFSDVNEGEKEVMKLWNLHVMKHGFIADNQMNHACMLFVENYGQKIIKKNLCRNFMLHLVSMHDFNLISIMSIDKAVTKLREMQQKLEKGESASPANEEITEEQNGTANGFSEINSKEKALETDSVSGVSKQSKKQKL
Sequence (Q09028 whole entry partner): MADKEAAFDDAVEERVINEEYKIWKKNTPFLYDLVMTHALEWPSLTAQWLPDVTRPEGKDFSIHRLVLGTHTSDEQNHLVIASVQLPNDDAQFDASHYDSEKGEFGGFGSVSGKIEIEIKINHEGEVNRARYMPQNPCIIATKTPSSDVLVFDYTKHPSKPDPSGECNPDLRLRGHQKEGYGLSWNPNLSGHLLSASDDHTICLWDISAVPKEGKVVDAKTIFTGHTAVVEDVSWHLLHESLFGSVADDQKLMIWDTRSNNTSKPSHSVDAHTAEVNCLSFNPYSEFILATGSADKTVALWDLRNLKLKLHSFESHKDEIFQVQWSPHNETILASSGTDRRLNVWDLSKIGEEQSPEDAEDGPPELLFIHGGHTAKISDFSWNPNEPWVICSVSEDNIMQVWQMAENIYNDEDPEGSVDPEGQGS
Sequence (Q6ZN18 whole entry partner): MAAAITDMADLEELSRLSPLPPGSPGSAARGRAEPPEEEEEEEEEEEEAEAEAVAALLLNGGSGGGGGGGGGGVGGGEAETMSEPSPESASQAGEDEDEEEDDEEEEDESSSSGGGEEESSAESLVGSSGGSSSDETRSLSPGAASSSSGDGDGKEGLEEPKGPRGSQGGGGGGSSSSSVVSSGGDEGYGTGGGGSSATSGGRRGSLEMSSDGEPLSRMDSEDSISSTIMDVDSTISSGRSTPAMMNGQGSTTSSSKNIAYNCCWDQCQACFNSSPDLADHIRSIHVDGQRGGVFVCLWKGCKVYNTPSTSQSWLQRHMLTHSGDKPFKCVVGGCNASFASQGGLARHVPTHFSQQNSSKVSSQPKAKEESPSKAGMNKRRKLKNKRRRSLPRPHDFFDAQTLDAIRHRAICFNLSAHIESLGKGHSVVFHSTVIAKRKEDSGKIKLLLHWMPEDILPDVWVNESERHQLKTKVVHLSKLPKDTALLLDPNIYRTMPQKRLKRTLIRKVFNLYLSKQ
runDescription: EZH2 methyltransferase scintillation proximity assay (SPA)
statedConditions: Human PRC2 5 member complex (FLAG-EZH2, EED, SUZ12, RbAp48, AEBP2), 1 nM enzyme, biotinylated histone H3K27 peptide, 3H-SAM, 60 min at room temperature
Procedure: Compounds contained herein were evaluated for their ability to inhibit the methyltransferase activity of EZH2 within the PRC2 complex. […] Enzyme activity was measured in a scintillation proximity assay (SPA) where a tritiated methyl group is transferred from 3H-SAM to a lysine residue on a biotinylated, unmethylated peptide substrate derived from histone H3. The peptides were captured on streptavidin-coated SPA beads and the resulting signal was read on a ViewLux plate reader. […]
readoutLabel: log10 of IC50 (log10 of the value in nM)

>  <compound>
CCC(c1scc(C(=O)NCc2c(C)cc(C)[nH]c2=O)c1C)C1CCN(CC(F)F)CC1 (racemic) [Example 14]

>  <testTarget>
EZH2 within the PRC2 complex (Homo sapiens, UniProt Q15910)

>  <log10 of IC50>
1.60

$$$$
>  <compound>
CCC(c1scc(C(=O)NCc2c(C)cc(C)[nH]c2=O)c1C)C1CCN(CC(F)(F)F)CC1 (racemic) [Example 11]

>  <testTarget>
EZH2 within the PRC2 complex (Homo sapiens, UniProt Q15910)

>  <log10 of IC50>
1.30

$$$$
>  <compound>
CC[C@@H](c1scc(C(=O)NCc2c(C)cc(C)[nH]c2=O)c1C)C1CCN(CC(C)(F)F)CC1 [Example 4]

>  <testTarget>
EZH2 within the PRC2 complex (Homo sapiens, UniProt Q15910)

>  <log10 of IC50>
1.30

$$$$
>  <compound>
CCC(c1sc2c(c1C)C(=O)N(Cc1c(C)cc(C)[nH]c1=O)CC2)C1CCN(CC(C)F)CC1 (stereo not drawn) [Example 17]

>  <testTarget>
EZH2 within the PRC2 complex (Homo sapiens, UniProt Q15910)

>  <log10 of IC50>
2.00

$$$$
>  <compound>
CCC(c1sc2c(c1C)C(=O)N(Cc1c(C)cc(C)[nH]c1=O)CC2)C1CCN(CC(C)(F)F)CC1 (stereo not drawn) [Example 16]

>  <testTarget>
EZH2 within the PRC2 complex (Homo sapiens, UniProt Q15910)

>  <log10 of IC50>
2.00

$$$$
>  <compound>
CCC(c1scc(C(=O)NCc2c(C)cc(C)[nH]c2=O)c1C)C1CCN(/C(=N\C#N)NC)CC1 (stereo not drawn) [Example 19]

>  <testTarget>
EZH2 within the PRC2 complex (Homo sapiens, UniProt Q15910)

>  <log10 of IC50>
2.50

$$$$
>  <compound>
CCC(c1scc(C(=O)NCc2c(C)cc(C)[nH]c2=O)c1C)C1CCN(CC(C)(C)F)CC1 (racemic) [Example 6]

>  <testTarget>
EZH2 within the PRC2 complex (Homo sapiens, UniProt Q15910)

>  <log10 of IC50>
1.70

$$$$
>  <compound>
CC[C@H](c1scc(C(=O)NCc2c(C)cc(C)[nH]c2=O)c1C)C1CCN(CC(C)(F)F)CC1 [Example 5]

>  <testTarget>
EZH2 within the PRC2 complex (Homo sapiens, UniProt Q15910)

>  <log10 of IC50>
2.70

$$$$
>  <compound>
CCC(=C1CCN(c2ncccn2)CC1)c1scc(C(=O)NCc2c(C)cc(C)[nH]c2=O)c1C [Example 13]

>  <testTarget>
EZH2 within the PRC2 complex (Homo sapiens, UniProt Q15910)

>  <log10 of IC50>
1.11

$$$$

* * *

# reported IC50; entries follow
testTarget: EZH2 within the PRC2 complex (Homo sapiens)
Construct: FLAG; made in house; host or cells: Sf9 cells
runDescription: EZH2 methyltransferase scintillation proximity assay (SPA)
Type: biochemical
statedConditions: Human PRC2 5 member complex (FLAG-EZH2, EED, SUZ12, RbAp48, AEBP2), 1 nM enzyme, biotinylated histone H3K27 peptide, 3H-SAM, 60 min at room temperature

>  <molecule>
CCC(=C1CCN(CC(C)(C)F)CC1)c1scc(C(=O)NCc2c(C)cc(C)[nH]c2=O)c1C

>  <IC50>
≤ 0.01 µM

$$$$
>  <molecule>
CCC(=C1CCN(CC(F)(F)F)CC1)c1scc(C(=O)NCc2c(C)cc(C)[nH]c2=O)c1C

>  <IC50>
≤ 0.01 µM

$$$$
>  <molecule>
CCC(=C1CCC(O)CC1)c1scc(C(=O)NCc2c(C)cc(C)[nH]c2=O)c1C (stereo not drawn)

>  <IC50>
≤ 0.01 µM

$$$$
>  <molecule>
Cc1cc(C)c(CNC(=O)c2csc([C@H](C)C3CCN(CC(C)(F)F)CC3)c2C)c(=O)[nH]1

>  <IC50>
≤ 0.01 µM

$$$$
>  <molecule>
Cc1cc(C)c(CNC(=O)c2csc([C@H](C)C3CCN(CC(F)F)CC3)c2C)c(=O)[nH]1

>  <IC50>
≤ 0.01 µM

$$$$
>  <molecule>
CCC(=C1CCN(Cc2ncco2)CC1)c1scc(C(=O)NCc2c(C)cc(C)[nH]c2=O)c1C

>  <IC50>
≤ 0.01 µM

$$$$
